Where these numbers come from: patent US20230141177A1

Here the recorded LMW/HMW ratio is given for each entry.
- TARGET OR SYSTEM: AβO in the low molecular weight (LMW) fraction of pooled soluble human AD brain extract (~8 kDa to ~70 kDa) (human) (UniProt P05067)
- TEST DESCRIPTION: SPR; BRU on LMW fraction divided by BRU on HMW fraction; Study 2

BINDER	LMW/HMW ratio
Clone 14 (affinity matured VH with parental Vk, human IgG4 S241P / kappa) (antibody, V domains shown) VH: QVQLVQSGAEVKKPGASVKMSCKASGYSFTSYWINWVKQRPGQGLEWIGDVHPGRGVSTYNAKFKSRATLTLDTSISTAYMELSSLRSEDTAVYYCAKSDASGYWFFDVWGQGTTVTVSS VL: DVLMTQSPLSLPVTLGQPASISCRSSQSIVHSNGNTYLEWYQQRPGQSPRLLIYKVSNRFSGVPDRFSGSGSGTDFTLKISRVEAEDVGVYYCFQGSHVPFTFGQGTKLEIKR	1.47
Clone 4 (affinity matured VH with parental Vk, human IgG4 S241P / kappa) (antibody, V domains shown) VH: QVQLVQSGAEVKKPGASVKMSCKASGYSFTSYWINWVKQRPGQGLEWIGDVHPGRGVSTYNAKFKSRATLTLDTSISTAYMELSSLRSEDTAVYYCARVSPTGYWFFDVWGQGTTVTVSS VL: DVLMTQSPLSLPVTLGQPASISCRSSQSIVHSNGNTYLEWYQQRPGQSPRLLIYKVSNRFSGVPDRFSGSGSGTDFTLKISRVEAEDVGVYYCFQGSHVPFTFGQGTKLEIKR	1.55
parental antibody, PMN310 humanized antibody variant VH2/Vk5 (human IgG4 S241P / kappa) (antibody, V domains shown) VH: QVQLVQSGAEVKKPGASVKMSCKASGYSFTSYWINWVKQRPGQGLEWIGDVHPGRGVSTYNAKFKSRATLTLDTSISTAYMELSSLRSEDTAVYYCSRSHGNTYWFFDVWGQGTTVTVSS VL: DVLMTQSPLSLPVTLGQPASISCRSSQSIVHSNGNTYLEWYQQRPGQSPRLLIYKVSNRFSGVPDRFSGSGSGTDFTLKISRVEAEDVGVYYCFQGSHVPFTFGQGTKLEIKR	1.31
Clone 5 (affinity matured VH with parental Vk, human IgG4 S241P / kappa) (antibody, V domains shown) VH: QVQLVQSGAEVKKPGASVKMSCKASGYSFTSYWINWVKQRPGQGLEWIGDVHPGRGVSTYNAKFKSRATLTLDTSISTAYMELSSLRSEDTAVYYCARGALSPYWFFDVWGQGTTVTVSS VL: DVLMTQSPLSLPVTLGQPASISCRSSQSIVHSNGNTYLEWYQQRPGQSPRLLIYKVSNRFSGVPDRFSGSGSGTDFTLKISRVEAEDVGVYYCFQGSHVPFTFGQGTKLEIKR	1.43
